tested system: soluble FGFR2c receptor protein (human, UniProt P21802 148-377)
Sequence (P21802 148-377): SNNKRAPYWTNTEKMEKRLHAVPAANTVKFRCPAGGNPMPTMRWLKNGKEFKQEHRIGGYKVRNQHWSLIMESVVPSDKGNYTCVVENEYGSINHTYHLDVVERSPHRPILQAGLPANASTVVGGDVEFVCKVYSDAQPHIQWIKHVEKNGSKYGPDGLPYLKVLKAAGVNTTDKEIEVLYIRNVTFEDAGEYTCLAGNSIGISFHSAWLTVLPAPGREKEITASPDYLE
method description: BLI Octet RED96, antibody on anti-hIgG Fc tip
Classify: Y when kon is strictly less than 200000 M⁻¹ s⁻¹; N when kon is not.

Past entries and their recorded results:
binder: Vk2 combined with the VH of Ab15 (antibody, V domains shown, captured on anti-human IgG Fc tips) VH: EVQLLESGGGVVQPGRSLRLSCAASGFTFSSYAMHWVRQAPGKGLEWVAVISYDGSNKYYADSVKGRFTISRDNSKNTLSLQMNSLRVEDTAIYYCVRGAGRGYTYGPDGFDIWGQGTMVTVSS VL: DIVMTQTPLSLSVTPGQPASISCTSSRSLLHSDGKTYVYWYLQKPGQPPQLLIYELSNRFSGVPDRFSGSGSRTDFTLKISRVEAEDVGVYYCMQYIEAPLTFGGGTKVEIK
class: N

binder: Vk9 combined with the VH of Ab15 (antibody, V domains shown, captured on anti-human IgG Fc tips) VH: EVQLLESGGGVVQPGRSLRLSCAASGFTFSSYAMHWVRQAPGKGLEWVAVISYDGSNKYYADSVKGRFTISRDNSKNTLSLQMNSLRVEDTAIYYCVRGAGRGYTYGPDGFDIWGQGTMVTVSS VL: DIVMTQSPDSLAVSLGERATINCKSSQSLLHSDGKTYVYWYQQKPGQPPKLLIYELSNRFSGVPDRFSGSGSGTDFTLTISSLQAEDVAVYYCMQYIEAPLTFGGGTKVEIK
class: N

binder: Ab60 (antibody, human IgG2, kappa, V domains shown, format in the assays not spelled out) VH: EVQLLESGGGVVQPGRSLRLSCAASGFDFAGYAMHWVRQAPGKGLEWVAVISYDGSNKYYADSVKGRFTISRDNSKNTLSLQMNSLRVEDTAIYYCVRGAGRGLTYGPDGFDIWGQGTMVTVSS VL: DIVMTQTPLSLSVTPGQPASISCTSSRSLLHSDGKTYVYWYVQKSGQPPQLLIYELSNRFSGVPDRFSGSGSRTDFTLKISRVEAEDVGVYYCMQYIEAPLTFGGGTKVEIKR
class: N

binder: Vh1 combined with the VL of Ab15 (antibody, V domains shown, captured on anti-human IgG Fc tips) VH: EVQLVESGGGVVQPGRSLRLSCAASGFTFSSYAMHWVRQAPGKGLEWVAVISYDGSNKYYADSVKGRFTISRDNSKNTLYLQMNSLRAEDTAIYYCVRGAGRGYTYGPDGFDIWGQGTMVTVSS VL: DIVMTQTPLSLSVTPGQPASISCTSSRSLLHSDGKTYVYWYVQKSGQPPQLLIYELSNRFSGVPDRFSGSGSRTDFTLKISRVEAEDVGVYYCMQYIEAPLTFGGGTKVEIK
class: N

binder: Vk6 combined with the VH of Ab15 (antibody, V domains shown, captured on anti-human IgG Fc tips) VH: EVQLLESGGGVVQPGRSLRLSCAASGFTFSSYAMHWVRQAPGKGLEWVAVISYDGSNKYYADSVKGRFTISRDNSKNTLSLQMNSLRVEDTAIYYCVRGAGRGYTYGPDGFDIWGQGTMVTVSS VL: DIVMTQTPLSLSVTPGQPASISCKSSQSLLHSDGKTYLYWYLQKPGQPPQLLIYELSNRFSGVPDRFSGSGSGTDFTLKISRVEAEDVGVYYCMQYIEAPLTFGGGTKVEIK
class: N

Now for another entry.
Hi there! Is kon for Vk1 combined with the VH of Ab15 (antibody, V domains shown, captured on anti-human IgG Fc tips) VH: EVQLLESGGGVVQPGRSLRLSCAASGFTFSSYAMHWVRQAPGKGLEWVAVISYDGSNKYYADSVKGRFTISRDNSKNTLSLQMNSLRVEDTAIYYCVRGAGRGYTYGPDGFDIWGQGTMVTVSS VL: DIVMTQTPLSLSVTPGQPASISCTSSRSLLHSDGKTYLYWYLQKPGQPPQLLIYELSNRFSGVPDRFSGSGSRTDFTLKISRVEAEDVGVYYCMQYIEAPLTFGGGTKVEIK below 200000 M⁻¹ s⁻¹, do you know?
Y
